B1: HDV Ribozyme (parent)
chain: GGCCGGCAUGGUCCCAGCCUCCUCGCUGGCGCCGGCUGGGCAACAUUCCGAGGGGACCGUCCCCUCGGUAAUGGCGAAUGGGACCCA

Variants of: B1
Protocol Description: self-cleavage, relative activity (ratio to wild type); higher = more cleavage; co-transcriptional
Let's look at some variants and their measured self-cleavage.

[
  {
    "Primary Sequence": "GGCCGGCAUGGUCCCAGCCUCCUCGCUGGCGCCGGCUGGGCAACCUUCCGAGGAGACCGUCCCCUCGGUAAUGGCGAAUGGGACCCA [A45C G54A]",
    "self-cleavage": 0.597
  },
  {
    "Primary Sequence": "GGCCGGCAUGGUCCCAGCCUCCUCGCUGGCGCCGACUGGGCAUCAUUCCGAGGGGACCGUCCCCUCGGUAAUGGCGAAUGGGACCCA [G35A A43U]",
    "self-cleavage": 0.108
  },
  {
    "Primary Sequence": "GGCCGGCAUGGUCCCAGCCUCCACGCUGGCGCCGGCUGGGCAACAUUCCGAGGGGACCGUCCCCUCGGUAAUGGCGAAUGGGACUCA [U23A C85U]",
    "self-cleavage": 0.98
  },
  {
    "Primary Sequence": "GGACGGCAUGGUCCCAGCCUCCUCGCAGGCGCCGGCUGGGCAACAUUCCGAGGGGACCGUCCCCUCGGUAAUGGCGAAUGGGACCCA [C3A U27A]",
    "self-cleavage": 0.306
  },
  {
    "Primary Sequence": "GGCCGGCAUGGUCCCAGCCUCCUCGCUGGCGCCGGCUGGGCGACAUUCCGAGGGGACCGUCCCCUCGGUAAAGGCGAAUGGGACCCA [A42G U72A]",
    "self-cleavage": 0.369
  },
  {
    "Primary Sequence": "GGCCGGCAUGGUCCCAGCCUCCUCGCUGGCGCCGGCUGGGCAACAUUCCGAGGGGACCGUCCCCUCGGUAAUGGCGAGUGGAACCCA [A78G G82A]",
    "self-cleavage": 0.365
  },
  {
    "Primary Sequence": "GGCCGGCAUGGUCCCAGCCUCCUCGCUGGCGCCGGCUGGGCAACCUUCCGAGGGGACCGUCCCCUCAGUAAUGGCGAAUGGGACCCA [A45C G67A]",
    "self-cleavage": 0.719
  },
  {
    "Primary Sequence": "GGUCGGCAUGGUCCCAGCCCCCUCGCUGGCGCCGGCUGGGCAACAUUCCGAGGGGACCGUCCCCUCGGUAAUGGCGAAUGGGACCCA [C3U U20C]",
    "self-cleavage": 0.113
  },
  {
    "Primary Sequence": "GGCCGGCAUGGUCCCAGCCUCCUCGCUGGCGCCGGCUGGGGAACAUUCCGGGGGGACCGUCCCCUCGGUAAUGGCGAAUGGGACCCA [C41G A51G]",
    "self-cleavage": 0.499
  },
  {
    "Primary Sequence": "GGCCGGCAUGGUCCCAGCCUCCUCGCUGGCGCCGGCUGGGCAACAUUCCGAGGGGACCGUCCCCUCGUUAAUUGCGAAUGGGACCCA [G68U G73U]",
    "self-cleavage": 0.0923
  },
  {
    "Primary Sequence": "GGCCGGCAUGGUCCCAGCCUCCUCGCUGGCGCCGGCUGGGCAACAUUCCGAGGGGACCCUCCCCUAGGUAAUGGCGAAUGGGACCCA [G59C C66A]",
    "self-cleavage": 0.914
  },
  {
    "Primary Sequence": "GGCCGGCAGGGUCCCAGCCUCCUCGCUGGCGCCGGCUGGGCAACAUUCCGAGGGGACCGUCCCCUCGUUAAUGGCGAAUGGGACCCA [U9G G68U]",
    "self-cleavage": 0.782
  },
  {
    "Primary Sequence": "GGCCGGCAUGGUCUCAGCCUCCUCGCUGGCGCCGGCUGGGCAACAUUCGGAGGGGACCGUCCCCUCGGUAAUGGCGAAUGGGACCCA [C14U C49G]",
    "self-cleavage": 0.831
  },
  {
    "Primary Sequence": "GGCCGGCAUGGUCCCAGCCUCCUCGCUGGCGCCGGCUGGGCAACAUGCCGCGGGGACCGUCCCCUCGGUAAUGGCGAAUGGGACCCA [U47G A51C]",
    "self-cleavage": 1.13
  },
  {
    "Primary Sequence": "GGCCGACAUGGUCCCAGCCUCCUCGCUGGCGCCGGCUGGGCAACAUUCCGAGGGGACCGUCCCCUCGGUAAUGGCAAAUGGGACCCA [G6A G76A]",
    "self-cleavage": 0.744
  },
  {
    "Primary Sequence": "GGCCGGCACGGUCCCAGCCUCCUCGCUGGCGCCGGCUGGGCAACAUUCCGAGGGGACCGUCCCCUCGGUAAUGGCGAAUGCGACCCA [U9C G81C]",
    "self-cleavage": 0.598
  },
  {
    "Primary Sequence": "GGCCGGCAUGGUCCCAGCCUCCUCGCUGGCGCCGGCUGGGCAACAUUCCGAGGGGACCGUCCCCUCAGUAAUGGCGAAUGGGCCCCA [G67A A83C]",
    "self-cleavage": 0.464
  },
  {
    "Primary Sequence": "GGCCGGCAUGGUCCCAGCCUCCUCGAGGGCGCCGGCUGGGCAACAUUCCGAGGGGACCGUCCCCUCGGUAAUGGCGAAUGGGACCCA [C26A U27G]",
    "self-cleavage": 0.733
  }
]
